# System: LXFL 529 NSCLC
# Test protocol: NCI tumour cell line growth inhibition, 48 h
Experimental readout: TGI

>>> reported("O=C1CCNC(=O)NC1")
"> 100 µM"
>>> reported("O=C1/C(=C/c2ccc(Cl)cc2)CCC1CN1CCOCC1 (stereo unspecified)")
"6.88 µM"
>>> reported("Nc1c(C(=O)NC23CC4CC(CC(C4)C2)C3)[n+]([O-])c2ccccc2[n+]1[O-]")
"> 100 µM"
>>> reported("Cc1cccc(C(C)C)c1NC(=O)CCl")
"> 100 µM"
>>> reported("O=C(/C=C/c1ccccc1O)c1cccc2ccccc12")
"> 100 µM"
>>> reported("O=C1/C(=C/c2ccc(Cl)c(Cl)c2)CNC/C1=C\\c1ccc(Cl)c(Cl)c1")
"12.2 µM"

* * *

# Tested on: SK-MEL-28 melanoma
# Test protocol: NCI tumour cell line growth inhibition, 48 h; in the data active means GI50 below about 0.43 µM; inactive means the rest
Outcome codes: active, inactive

>>> label_class("CC#CC#C/C=C1\\C=CC2(OC=CC2OC(C)=O)O1 (configuration not stated)")
"inactive"
>>> label_class("O=c1c2c(=NCCN3CCCC3)cc3c(=O)n(CCCN4CCOCC4)c(=O)c4ccc(c(O)n1CCCN1CCOCC1)c2c4-3")
"inactive"
>>> label_class("O=C(Nc1ccc(Oc2ccc(NC(=O)Nc3ccc([N+](=O)[O-])cc3)cc2)cc1)Nc1ccc([N+](=O)[O-])cc1")
"inactive"
>>> label_class("Cc1ccc(-c2cc(-c3ccc(C)cc3)nc(N3CCN(CCNc4ccnc5cc(Cl)ccc45)CC3)n2)cc1")
"inactive"
>>> label_class("CC[C@H](C)[C@H](NC(=O)NC(C)(C)C)C(=O)N(C)[C@H](C[C@@H](OC(C)=O)c1nc(C(=O)N[C@@H](Cc2ccccc2)C[C@H](C)C(=O)OC)cs1)C(C)C")
"inactive"
>>> label_class("COc1ccc(-n2cc(-c3cc(OC)c(OC)c(OC)c3)[nH]c2=S)cc1Cl")
"inactive"
>>> label_class("CCOC(=O)c1ccccc1SC(C[N+](=O)[O-])c1ccccc1 (configuration not stated)")
"inactive"
>>> label_class("CC(C)C[CH2][Ge]([CH2]CC(C)C)([CH2]CC(C)C)[CH2]CC(C)C")
"inactive"
>>> label_class("CN1CCN(c2ccc3nc(-c4[nH]ncc4Nc4ncnc5c4OCCCN5)[nH]c3c2)CC1")
"active"
>>> label_class("CCCCCCCCNC(C)C(O)c1ccc(SC(C)C)cc1 (configuration not stated)")
"inactive"
>>> label_class("CN(C)c1ccc(Nc2c3ccccc3nc3cc(NC(=O)CCN4CCCC4)ccc23)cc1")
"inactive"
>>> label_class("O=C1NC(=O)[C@@H](c2c[nH]c3ccccc23)[C@@H]1c1c[nH]c2ccccc12")
"inactive"
>>> label_class("COc1ccc2c(c1)C(=O)c1c-2c(N2CCN(C(=O)CNCCN(C)C)CC2)nc2ccccc12")
"inactive"
>>> label_class("COc1cnc2c(c1)C(=O)c1c-2n(CCCNCCN2CCOCC2)c(=O)c2cc([N+](=O)[O-])ccc12")
"inactive"
>>> label_class("O=C(c1nn(-c2ccc(Cl)cc2)cc1O)n1nc(C(F)(F)F)cc1-c1ccccc1")
"inactive"
>>> label_class("O=C(Oc1ccccc1Cl)c1ccccc1Nc1cccc(C(F)(F)F)c1")
"inactive"
>>> label_class("COc1ccc(-c2nc(-c3ccccn3)c(-c3ccccn3)n2CC(C)C)cc1OC1CCCC1")
"inactive"

* * *

# Tested on: HT29 colon
# Test protocol: NCI tumour cell line growth inhibition, 48 h; in the data active = GI50 below about 0.43 µM; inactive = the rest
Outcome codes: active, inactive

>>> label_class("COc1ccc2c(c1)C(=O)c1c-2c(N2CCN(C(=O)CNCCN(C)C)CC2)nc2ccccc12")
"active"
>>> label_class("CCCCCCCCCCC[C@@H](C[C@H]1OC(=O)[C@H]1CCCCCC)OC(=O)[C@@H](CC(C)C)NC=O")
"inactive"
>>> label_class("O=C1/C(=C/c2ccc(Cl)cc2)CN(C(=O)CCN2CCC(=NO)CC2)C/C1=C\\c1ccc(Cl)cc1")
"active"

* * *

# Tested on: TK-10 renal
# Test protocol: NCI tumour cell line growth inhibition, 48 h
Experimental readout: TGI

>>> reported("CC1(C)CN=CC(C)(OCc2ccccc2)C(=O)NC(C)(C)CN=CC(C)(OCc2ccccc2)C(=O)N1 (stereo not given)")
"> 10 µM"
>>> reported("COc1ccc(C2C(C#N)=C(S)N(C3OC(CO)C(O)C(O)C3O)C(C)=C2C(C)=O)cc1 (stereo not given)")
"> 100 µM"
>>> reported("CN(C)c1ccc(Nc2c3ccccc3nc3cc(NC(=O)CCN4CCCC4)ccc23)cc1")
"3 µM"
>>> reported("C[C@@H](Oc1cc(-n2cnc3ccc(OCC4CCN(C)CC4)cc32)sc1C(N)=O)c1ccccc1Cl")
"5.13 µM"
>>> reported("O=C1/C(=C/c2ccc(Cl)cc2)CCC1CN1CCOCC1 (stereo not given)")
"18.3 µM"
>>> reported("CCCCCCCCCCCCCCCC(=O)OCC1OC(OC)C(NC(=O)N(CCCl)N=O)C(O)C1O (stereo not given)")
"63.2 µM"
>>> reported("CN(C)CC1CCCc2ccccc2C1=O (stereo not given)")
"14.7 µM"
>>> reported("N#Cc1c(N2CCCC2)nsc1Nc1ccc(F)cc1")
"> 100 µM"
>>> reported("COc1cccc([C@@H]2CC(=O)c3cc4c(cc3N2)OCO4)c1")
"> 100 µM"
>>> reported("O=C(NNS(=O)(=O)c1ccccc1)c1csc(NC(=S)NC2CCCCC2)n1")
"> 100 µM"
>>> reported("CCOC(=O)C(NC(=O)CC)(Nc1ccc(S(=O)(=O)Nc2ccc(OC)nn2)cc1)C(F)(F)F (stereo not given)")
"> 100 µM"
>>> reported("CCC(C)c1cccc(C)c1NC(=O)C(=O)Cc1nc2ccccc2s1 (stereo not given)")
"> 100 µM"
>>> reported("NC(CCc1ncc(-c2ccccc2)s1)C(=O)O (stereo not given)")
"> 100 µM"
>>> reported("Cn1c(COC(=O)NC2CCCCC2)c(COC(=O)NC2CCCCC2)c2ccc3cc(C=O)ccc3c21")
"> 100 µM"
>>> reported("CC(=O)O[C@H]1C[C@](C)(O)[C@@]23CC([C@@H](OC(=O)C(C)(C)O)[C@@H](OC(C)=O)C2(COC(=O)c2ccccc2)[C@H]1OC(C)=O)C(C)(C)O3 (stereo not given in full)")
"> 100 µM"
>>> reported("O=S1c2ccccc2NC(c2ccc3ccccc3c2)CC1c1ccccc1 (stereo not given)")
"> 100 µM"
>>> reported("COc1ccc(N2N=NN(C(C)C)/C2=C(/Cl)c2nnnn2-c2ccc(OC)cc2)cc1")
"30.1 µM"
>>> reported("CCOC(OCC)C(CC)[Se]c1ccccc1 (stereo not given)")
"> 100 µM"
>>> reported("O=C(Oc1ccc2c(-c3ccccc3)c(C(=O)Nc3ccc(Cl)cc3)c(=O)oc2c1)c1ccccc1")
"> 100 µM"
>>> reported("COc1cc(C(O)C(=O)c2cnc3cc([N+](=O)[O-])ccc3n2)ccc1O (stereo not given)")
"> 100 µM"
>>> reported("O=C1/C(=C/c2ccc(Cl)c(Cl)c2)CNC/C1=C\\c1ccc(Cl)c(Cl)c1")
"80 µM"
>>> reported("Nc1ccccc1OCCCOc1ccccc1N")
"> 100 µM"
>>> reported("CC(=O)c1[nH]c(Nc2ccc(C)cc2)c(C(=S)Nc2ccccc2)c1N")
"35.5 µM"
>>> reported("O=C(c1nn(-c2ccc(Cl)cc2)cc1O)n1nc(C(F)(F)F)cc1-c1ccccc1")
"> 100 µM"
>>> reported("Nc1nc(-c2ccc(Cl)cc2)cc(-c2ccc(Cl)cc2)c1-c1nc2ccccc2o1")
"41.9 µM"
>>> reported("COc1cc(-c2nc3cc(Cl)c(Cl)cc3[nH]2)ccc1OCC(=O)N=Nc1c(O)[nH]c2ccc(Cl)cc12")
"> 100 µM"
>>> reported("O=C(NN1C(=O)C(Cl)C1c1ccccc1Cl)c1ccccc1O (stereo not given)")
"> 100 µM"
>>> reported("C=C(C)[C@@H]1CC[C@]2(C(=O)O)CC[C@]3(C)[C@H](CC[C@@H]4[C@@]5(C)C/C(=C/c6cccc(I)c6)C(=O)C(C)(C)[C@@H]5CC[C@]43C)[C@@H]12")
"20.6 µM"
>>> reported("Cc1ccc(NC(=O)/C(=N/NC(=O)C[N+](C)(C)C)c2nc3ccccc3[nH]c2=O)cc1")
"> 100 µM"
>>> reported("ClC1c2ccccc2C2(c3ccccc3)OOC1(c1ccccc1)O2 (stereo not given)")
"4.4 µM"
>>> reported("O=c1c2c(=NCCN3CCCC3)cc3c(=O)n(CCCN4CCOCC4)c(=O)c4ccc(c(O)n1CCCN1CCOCC1)c2c4-3")
"1.62 µM"
>>> reported("CCOC(=O)c1ccc(N(C=O)CCC(=O)CCl)cc1")
"7.03 µM"
>>> reported("CCOc1ccc(NCC2CC/C(=C\\c3ccc(Cl)cc3)C2=O)cc1 (stereo not given)")
"> 65.6 µM"
>>> reported("Fc1cccc(Cl)c1Cn1c(-c2c(F)cccc2Cl)nc2ccccc21")
"39.8 µM"
>>> reported("O=C1CCNC(=O)NC1")
"> 100 µM"
>>> reported("O=C1NC(=O)[C@@H](c2c[nH]c3ccccc23)[C@@H]1c1c[nH]c2ccccc12")
"> 25 µM"
>>> reported("O=C(c1ccccc1)c1c(C(F)(F)F)n([O-])c2cc(F)c(F)cc2[n+]1=O")
"0.816 µM"
>>> reported("OCCn1cc(-c2cnc3nnn(Cc4ccc5ncccc5c4)c3n2)cn1")
"> 100 µM"
>>> reported("COc1cc(C2c3cc(OC)c(OC)c(O)c3C(=O)C3CCC(=O)N32)cc(OC)c1OC (stereo not given)")
"> 100 µM"
>>> reported("Oc1ccc(Oc2cnc3cc(Cl)ccc3n2)cc1")
"> 100 µM"

The reported numbers originate from PubChem BioAssay (NCI).
